Test system: P. aeruginosa pyocyanin production
Test: Pyocyanin assay
Assay type: cell-based
Details: Pseudomonas aeruginosa, PA14, 16 h, read-out: IC50-value towards pyocyanin production, PA14 in PPGAS medium, 16 h
Recorded IC50 for the following compounds

sample_smiles | IC50
FC(F)c1cccc(Nc2ccc3[nH]c(CSc4ccnc(C(F)(F)F)c4)nc3c2)c1 | 101 to 200 nM
Fc1cc(Nc2cccnc2)cc2nc(CSc3ccnc(C(F)(F)F)c3)[nH]c12 | 201 to 500 nM
Fc1cc(C(F)(F)F)ccc1Nc1ccc2[nH]c(CSc3ccnc(C(F)(F)F)c3)nc2c1 | 101 to 200 nM
FC(F)(F)c1cc(SCc2nc3cc(Nc4ccccn4)ccc3[nH]2)ccn1 | 201 to 500 nM
FC(F)(F)c1cc(NCc2cn(-c3cccc(Nc4ccccc4)c3)nn2)ccn1 | ≤ 100 nM
Cc1cc(Nc2ccccc2)cc2nc(CSc3ccnc(C(F)(F)F)c3)[nH]c12 | 101 to 200 nM
